Data origin: PubChem BioAssay

target: Mitogen-activated protein kinase 7 (Homo sapiens); assay: Gal4-ERK5 driven luciferase induction – cell-based, HTS, primary screen (AID 1508626); settings: HeLa Gal4-ERK5 transactivation, 18 h, at 5 µM, active compounds read high;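 note: luciferase driven by Gal4-ERK5 fusion binding five Gal4 sites before minimal TATA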
Calls of active or inactive are those of the source.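 Rule for the calls: active = luciferase signal above three times the same-plate solvent-only control wells; inactive = the rest.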
Measured property: luciferase signal

*Q* Can you look up the measured luciferase signal of "Nc1ccc(C(=O)NCC(=O)O)cc1" for me?
*A* 20 AU (inactive)

*Q* Can you look up the measured luciferase signal of "CC(=O)Nc1ccccc1" for me?
*A* 60 AU (inactive)

*Q* Can you look up the measured luciferase signal of "C[C@](N)(Cc1ccc(O)c(O)c1)C(=O)O" for me?
*A* 68 AU (inactive)

*Q* Can you look up the measured luciferase signal of "CCCCNc1ccc(C(=O)OCCN(C)C)cc1" for me?
*A* 76 AU (inactive)

*Q* Can you look up the measured luciferase signal of NCC1CCC(C(=O)O)CC1 (configuration not stated) for me?
*A* 44 AU (inactive)

*Q* Can you look up the measured luciferase signal of CCOC(=O)OC(C)OC(=O)[C@@H]1N2C(=O)[C@@H](NC(=O)[C@H](N)c3ccccc3)[C@H]2SC1(C)C (some centres not stated) for me?
*A* 76 AU (inactive)

*Q* Can you look up the measured luciferase signal of CN1Cc2c(N)cccc2C(c2ccccc2)C1 (configuration not stated) for me?
*A* 88 AU (inactive)

*Q* Can you look up the measured luciferase signal of Nc1nc2c(c(=O)[nH]1)N(C=O)C(CNc1ccc(C(=O)N[C@@H](CCC(=O)O)C(=O)O)cc1)CN2 (some centres not stated) for me?
*A* 72 AU (inactive)

*Q* Can you look up the measured luciferase signal of O=C1C(=O)c2ccccc2C(O)=C1C1CCC(c2ccc(Cl)cc2)CC1 (configuration not stated) for me?
*A* 56 AU (inactive)

*Q* Can you look up the measured luciferase signal of "COc1ccc(CCN2CCC(Nc3nc4ccccc4n3Cc3ccc(F)cc3)CC2)cc1" for me?
*A* 84 AU (inactive)

*Q* Can you look up the measured luciferase signal of "COC(=O)[C@@H](N)CS" for me?
*A* 52 AU (inactive)

*Q* Can you look up the measured luciferase signal of "COc1ccc2c(c1)c(CC(=O)OCC(=O)O)c(C)n2C(=O)c1ccc(Cl)cc1" for me?
*A* 52 AU (inactive)
